Every entry's value here was drawn from patent US20190241669A1.

Please respond with reported pKd for every item in the list.
# targetDesc: T1, cynomolgus monkey BCMA (cynomolgus monkey, UniProt A0A2K5UD97 1-53)
# T1 construct: Soluble analyte in SPR; construct not described; also called cyBCMA; Cyno BCMA
# T1 sequence (A0A2K5UD97 entry or part of it): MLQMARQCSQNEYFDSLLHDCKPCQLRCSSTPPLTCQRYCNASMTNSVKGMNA
# assaySummary: SPR, IgG on chip, cyBCMA analyte
One number for each entry, as −log10 of the molar value.

Hey, quick one: what's pKd for each of these?
1. COMBO_Rd4_6nM_C22 (antibody, V domains shown, IgG) VH: EVQLLESGGGLVQPGGSLRLSCAASGFTFSSYAMNWVRQAPGKGLEWVSACLDSGGSTYYADSVKGRFTISRDNSKNTLYLQMNSLRAEDTAVYYCARYWPMDSWGQGTLVTVSS VL: EIVLTQSPGTLSLSPGERATLSCRASQSVSSSYLAWYQQKPGQAPRLLMYDASIRATGIPDRFSGSGSGTDFTLTISRLEPEDFAVYYCQQYQGWPLTFGQGTKVEIK
2. COMBO_Rd4_0.6nM_C11 (antibody, V domains shown, IgG) VH: EVQLLESGGGLVQPGGSLRLSCAASGFTFSSYPMSWVRQAPGKGLEWVSAALGSGGSTYYADSVKGRFTISRDNSKNTLYLQMNSLRAEDTAVYYCARYWPMSLWGQGTLVTVSS VL: EIVLTQSPGTLSLSPGERATLSCRASQSVSVRYLAWYQQKPGQAPRLLMYDASIRATGIPDRFSGSGSGTDFTLTISRLEPEDFAVYYCQQYGSWPITFGQGTKVEIK
3. COMBO_Rd4_0.6nM_C17 (antibody, V domains shown, IgG) VH: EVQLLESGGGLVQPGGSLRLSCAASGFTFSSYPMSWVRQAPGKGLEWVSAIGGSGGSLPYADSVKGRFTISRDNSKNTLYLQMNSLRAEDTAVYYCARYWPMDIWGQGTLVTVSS VL: EIVLTQSPGTLSLSPGERATLSCRASQGISSTYLAWYQQKPGQAPRLLMYDASIRATGIPDRFSGSGSGTDFTLTISRLEPEDFAVYYCQQYAYWPLTFGQGTKVEIK
4. C01_Rd4_0.6nM_C09 (antibody, V domains shown, IgG) VH: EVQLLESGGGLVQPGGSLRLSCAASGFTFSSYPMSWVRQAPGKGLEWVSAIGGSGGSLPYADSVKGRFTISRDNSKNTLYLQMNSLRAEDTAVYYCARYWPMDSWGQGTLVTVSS VL: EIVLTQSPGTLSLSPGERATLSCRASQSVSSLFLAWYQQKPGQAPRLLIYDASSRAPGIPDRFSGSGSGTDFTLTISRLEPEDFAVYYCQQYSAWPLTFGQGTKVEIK
5. COMBO_Rd4_6nM_C11 (antibody, V domains shown, IgG) VH: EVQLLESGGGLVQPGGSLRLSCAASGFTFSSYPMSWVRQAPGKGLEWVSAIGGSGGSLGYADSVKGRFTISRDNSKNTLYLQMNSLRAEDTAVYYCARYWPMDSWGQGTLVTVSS VL: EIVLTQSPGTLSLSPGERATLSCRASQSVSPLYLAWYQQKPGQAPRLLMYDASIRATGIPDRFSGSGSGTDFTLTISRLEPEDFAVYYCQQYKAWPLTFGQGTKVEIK

Response given:
1. 9.01
2. 8.72
3. 9.48
4. 8.75
5. 9.81
